# system.name: cyno ST2L (cyno)
# measurement.protocol: affinity table; method not stated
property.name: kon (M⁻¹ s⁻¹)
State the answer as a number, implicitly in M⁻¹ s⁻¹.

Which kon is listed for STLM107 (antibody, from another filing, V domains shown) VH: EVQLLESGGGLVQPGGSLRLSCAASGFTFSDYAMFWVRQAPGKGLEWVSAIEGEGGETNYADSVKGRFTISRDNSKNTLYLQMNSLRAEDTAVYYCARDPWSTEGSFFVLDYWGQGTLVTVSS VL: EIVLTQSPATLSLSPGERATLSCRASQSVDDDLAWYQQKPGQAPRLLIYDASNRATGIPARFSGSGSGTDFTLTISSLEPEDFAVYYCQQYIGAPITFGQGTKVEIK ? 1e+08

Further cases:
Which kon is listed for STLM222 (antibody, from another filing, V domains shown) VH: EVQLLESGGGLVQPGGSLRLSCAASGFTFSIYSMFWVRQAPGKGLEWVSDIGGEGGGTSYADSVKGRFTISRDNSKNTLYLQMNSLRAEDTAVYYCARDPWSTEGSFFVLDYWGQGTLVTVSS VL: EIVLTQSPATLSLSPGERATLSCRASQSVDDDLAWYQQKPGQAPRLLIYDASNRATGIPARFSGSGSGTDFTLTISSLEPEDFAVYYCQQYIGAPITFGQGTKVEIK ? 1.18e+07

# repeat for STLM220 (antibody, from another filing, V domains shown) VH: EVQLLESGGGLVQPGGSLRLSCAASGFTFSFYDMFWVRQAPGKGLEWVSDIRGEGGGTAYADSVKGRFTISRDNSKNTLYLQMNSLRAEDTAVYYCARDPWSTEGSFFVLDYWGQGTLVTVSS VL: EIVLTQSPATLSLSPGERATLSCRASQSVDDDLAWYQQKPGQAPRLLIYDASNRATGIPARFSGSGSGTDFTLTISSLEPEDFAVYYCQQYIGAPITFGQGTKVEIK 1.6e+07
